Target: CRF1R (Homo sapiens)
Test: CRF1R agonist activity (EC50 and Emax), called comparative CRF binding
Format: cell-based
Details: CRF1R; read-out: CRF1R EC50
Ends that are not written are not given here.
QUANTITY: EC50

1) SQEPPISLDLPIQLLREVLEMTKADQLAQQAHSNRKLLDIA-NH2 [compound 100] : ≥ 100 nM
2) SEEPPISLDVPIGLLQEVLEMARAEQLAQQAHSNRKLMEII-NH2 [compound 162] : > 100 nM
3) SQEPPISLDLTIHLLREVLEMTKADQLAQQAHSNRKLLDIA-NH2 [compound 87] : ≥ 100 nM
4) SEEPPISLDLTFHLLREVLEMARAEQLAQQAHTNARILARV-NH2 [compound 161] : > 100 nM

Proceeding to the next substance to report its EC50.
Ask: Lab note: need EC50 with CRF1R (Homo sapiens) for entry NDDPPISIDLPQYLLRNMIEMARIENEREQAGLNAKYLAEV-NH2 [compound 265] , please look it up.
Reply: ≥ 1000 nM

* * *

Entries annotated with measured EC50
Target: CRF2R (Homo sapiens)
Sequence (Q13324 whole entry, species assumed): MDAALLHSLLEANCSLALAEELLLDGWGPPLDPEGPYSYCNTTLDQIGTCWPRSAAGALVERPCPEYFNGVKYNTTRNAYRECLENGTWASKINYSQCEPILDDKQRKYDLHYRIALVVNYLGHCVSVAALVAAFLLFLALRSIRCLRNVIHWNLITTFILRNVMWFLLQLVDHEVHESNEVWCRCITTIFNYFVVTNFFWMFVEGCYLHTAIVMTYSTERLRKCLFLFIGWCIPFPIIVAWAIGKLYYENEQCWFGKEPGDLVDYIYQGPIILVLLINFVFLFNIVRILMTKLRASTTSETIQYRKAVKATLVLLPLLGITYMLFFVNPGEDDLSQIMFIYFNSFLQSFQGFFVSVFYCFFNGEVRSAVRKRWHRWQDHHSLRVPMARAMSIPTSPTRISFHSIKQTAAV
Experiment: CRF2R agonist activity (EC50 and Emax), called comparative CRF binding
Type: cell-based
Details: CRF2R; read-out: CRF2R EC50
Ends that are not written are not given here.

Examples from the recorded data:
1. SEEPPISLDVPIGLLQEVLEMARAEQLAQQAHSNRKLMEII-NH2 [compound 162] : > 100 nM
2. SQEPPISLDLPLQLLREVLEMTKADQLAQQAHSNRKLLDIA-NH2 [compound 95] : ≥ 100 nM
3. SQEPPISLDLTIGLLREVLEMTKADQLAQQAHSNRKLLDIA-NH2 [compound 86] : ≥ 100 nM
4. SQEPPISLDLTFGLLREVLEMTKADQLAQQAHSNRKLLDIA-NH2 [compound 88] : ≥ 100 nM
5. NDDPPISIDLPLILLRNMIEMARIENEREQAGLNAKYLAEV-NH2 [compound 269] : ≥ 100 nM
6. SEEPPISLDLTFHLLREVLEMARAEQLAQQAHTNARILARV-NH2 [compound 161] : > 100 nM

Ask: Request the reported EC50 associated with NDDPPISIDLPYYLLRNMIEMARIENEREQAGLNAKYLAEV-NH2 [compound 267]
Reply: ≥ 100 nM

Ask: What measured EC50 goes with SQEPPISLDLPIGLLREVLEMTKADQLAQQAHSNRKLLDIA-NH2 [compound 93] ?
Reply: ≥ 100 nM

Ask: What value of measured EC50 is listed for SQEPPISLDLPTHLLREVLEMTKADQLAQQAHSNRKLLDIA-NH2 [compound 99] ?
Reply: ≥ 100 nM

* * *

Catalogue of substances with associated pEC50
Molecular target: CRF1R (Homo sapiens, UniProt P34998)
Sequence (P34998 24-415): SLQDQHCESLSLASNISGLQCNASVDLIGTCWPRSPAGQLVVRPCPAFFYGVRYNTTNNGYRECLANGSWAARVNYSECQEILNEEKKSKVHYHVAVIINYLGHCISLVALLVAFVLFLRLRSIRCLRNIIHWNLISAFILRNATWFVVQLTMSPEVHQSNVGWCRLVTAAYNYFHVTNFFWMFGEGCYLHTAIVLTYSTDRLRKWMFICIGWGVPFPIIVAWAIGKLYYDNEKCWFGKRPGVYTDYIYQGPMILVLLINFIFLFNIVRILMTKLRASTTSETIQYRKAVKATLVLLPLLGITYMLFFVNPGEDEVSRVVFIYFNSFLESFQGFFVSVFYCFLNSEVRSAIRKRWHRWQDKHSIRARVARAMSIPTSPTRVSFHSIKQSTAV
Test: CRF1R agonist activity (EC50 and Emax), called comparative CRF binding
Format: cell-based
Conditions: CRF1R; read-out: CRF1R EC50
pEC50: −log10 of the molar value. Ends that are not written are not given here.

Answered examples (4):
1. SQEPPISLDLPTELLREVLEMTKADQLAQQAHSNRKIIDIA-NH2 [compound 92] : ≤ 7.00
2. SQEPPISLDLPLYLLREVLEMTKADQLAQQAHSNRKLLDIA-NH2 [compound 101] : ≤ 7.00
3. NDDPPISIDLPLQLLRNMIEMARIENEREQAGLNAKYLAEV-NH2 [compound 270] : ≤ 6.00
4. SQEPPISLDLPFYLLREVLEMTKADQLAQQAHSNRKLLDIA-NH2 [compound 96] : ≤ 7.00

From here, focus on the item given below.
Ask: Value lookup for pEC50; key = SQEPPISLDLPTYLLREVLEMTKADQLAQQAHSNRKLLDIA-NH2 [compound 106]
Reply: ≤ 7.00
